# key: entry, value: IP-1 Ymax (%)
System under test: AGTR1 (Homo sapiens)
Construct: host or cells: Pathunter CHO-K1 AGTR1 β-arrestin cell line (CHO-K1)
Assay summary: DiscoveRx IP1 accumulation assay (HTRF), agonist mode, Pathunter CHO-K1 AGTR1 β-arrestin cell line
Assay type: cell-based
Measurement name: IP-1 Ymax (%)

> print(dat)
                         structure.notation  measured.number
1  CCc1nc2c(C)cc(C)nc2n1Cc1ccc(-c2cc(-c3ccccc3)ccc2C(=O)O)cc1             12.3
2  CCc1nc2c(C)cc(C)nc2n1Cc1ccc(-c2cc(-c3cccn3C)ccc2-c2nn[nH]n2)cc1              2.4
3  CCc1nc2c(C)cc(C)nc2n1Cc1ccc(-c2cc(Oc3cccc(Cl)c3)ccc2-c2nnn[nH]2)cc1              4.8

====

The reader will find reported EC50 values listed item by item below.
System under test: AGTR1 (Homo sapiens)
Construct: host or cells: Pathunter CHO-K1 AGTR1 β-arrestin cell line (CHO-K1)
Assay summary: DiscoveRx IP1 accumulation assay (HTRF), agonist mode, Pathunter CHO-K1 AGTR1 β-arrestin cell line
Assay type: cell-based
Condition notes: read-out: IP-1 EC50
Measurement name: EC50

> print(dat)
                         structure.notation  measurement.name    result
1  CCCCC1=NC2(CCCC2)C(=O)N1Cc1ccc(-c2cc(-n3ccc4ccccc43)ccc2-c2nn[nH]n2)cc1              EC50  > 100 µM
2  CCCCC1=NC2(CCCC2)C(=O)N1Cc1ccc(-c2cc(-c3cccc(F)c3F)ccc2-c2noc(=O)[nH]2)cc1              EC50  > 100 µM
3  CCc1nc2c(C)cc(C)nc2n1Cc1ccc(-c2cc(N3CCC(F)(F)CC3)ccc2-c2nn[nH]n2)cc1              EC50  > 100 µM

====

System under test: hAT1R (Homo sapiens)
Assay summary: cell-based
Condition notes: agonist mode
Measurement name: BRET P63 Ymax (%)

> print(dat)
                                   compound  measured.number
1  CCCCC1=NC2(CCOCC2)C(=O)N1Cc1ccc(-c2cc(-c3cc(C)ccn3)ccc2-c2nn[nH]n2)cc1 [Example 171]             20.1
2  CCc1nc2c(C)cc(C)nc2n1Cc1ccc(-c2cc(-n3cc(C)c(C)n3)ccc2-c2nnn[nH]2)cc1 [Example 223]              9.8
3  CCc1nc2c(C)cc(C)nc2n1Cc1ccc(-c2cc(-n3cc4ccccc4n3)ccc2-c2nnn[nH]2)cc1 [Example 216]             10.1
4  CCc1nc2c(C)cc(C)nc2n1Cc1ccc(-c2cc(-n3cc(C(C)C)nn3)ccc2-c2nnn[nH]2)cc1 [Example 227]             19.9

====

System under test: AGTR1 (Homo sapiens, UniProt P30556)
Construct: host or cells: Pathunter CHO-K1 AGTR1 β-arrestin cell line (CHO-K1)
Sequence (P30556 whole entry): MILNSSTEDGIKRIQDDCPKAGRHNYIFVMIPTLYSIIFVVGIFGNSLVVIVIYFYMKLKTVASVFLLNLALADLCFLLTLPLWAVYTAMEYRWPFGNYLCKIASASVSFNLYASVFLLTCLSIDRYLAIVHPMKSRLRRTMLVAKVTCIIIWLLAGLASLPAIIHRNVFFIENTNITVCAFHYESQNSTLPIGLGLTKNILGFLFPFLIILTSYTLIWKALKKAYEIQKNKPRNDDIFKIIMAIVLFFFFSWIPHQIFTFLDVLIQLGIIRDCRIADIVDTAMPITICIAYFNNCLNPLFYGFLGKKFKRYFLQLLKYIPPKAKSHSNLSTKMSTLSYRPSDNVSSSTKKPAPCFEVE
Assay summary: DiscoveRx β-arrestin2 recruitment assay (enzyme complementation, Pathunter CHO-K1 AGTR1 β-arrestin cell line)
Assay type: cell-based
Condition notes: DiscoveRx β-arrestin2 recruitment, maximal response
Could you label it yes (1) if measured DiscoveRx β-arrestin2 Ymax (%) is 20% or higher, and no (0) otherwise?

> print(dat)
                          structure.notation  assigned.class
 1  CCCCc1ncc(C(=O)NCC)n1Cc1ccc(-c2cc(-c3ccccc3)ccc2-c2nn[nH]n2)cc1         yes (1)
 2  CCc1nc2c(C)cc(C)nc2n1Cc1ccc(-c2cc(-n3ccc(C(F)(F)F)n3)ccc2-c2nnn[nH]2)cc1         yes (1)
 3  CCCCC1=NC2(CCCC2)C(=O)N1Cc1ccc(-c2cc(N3CCC(C)CC3)ccc2-c2nn[nH]n2)cc1          no (0)
 4  CCCCC(=O)N(Cc1ccc(-c2cc(-c3ccccc3)ccc2-c2nn[nH]n2)cc1)[C@]1(C(=O)O)CC[C@@H](C)CC1         yes (1)
 5  CCCCc1ncc(C(=O)N2CCCC2)n1Cc1ccc(-c2cc(-c3ccccc3)ccc2-c2nn[nH]n2)cc1         yes (1)
 6  CCc1nc2c(C)cc(C)nc2n1Cc1ccc(-c2cc(-c3ccccc3)ccc2OCC(=O)O)cc1          no (0)
 7  CCc1nc2c(C)cc(C)nc2n1Cc1ccc(-c2cc(N3CCCC3=O)ccc2-c2nn[nH]n2)cc1          no (0)
 8  CCCCc1nc(Cl)c(C(=O)O)n1Cc1ccc(-c2cc(-n3ccc4ccccc43)ccc2-c2noc(=O)[nH]2)cc1         yes (1)
 9  CCc1nc2c(C)cc(C)nc2n1Cc1ccc(-c2cc(Oc3cccnc3)ccc2-c2nnn[nH]2)cc1         yes (1)
10  CCCCOC(=O)NS(=O)(=O)c1sc(-c2cccnc2OC)cc1-c1ccc(Cn2c(CC)nc3c(C)cc(C)nc32)cc1         yes (1)
